# assay.system: T1, Dimeric fibrinogen-like domain of human Ang-2 conjugated to human IgG1 (human)
# T1 construct: also called Dimeric Human Ang-2FD; Human Ang-2FD-hFc
# T1 sequence (chain, as listed by the source limits assumed): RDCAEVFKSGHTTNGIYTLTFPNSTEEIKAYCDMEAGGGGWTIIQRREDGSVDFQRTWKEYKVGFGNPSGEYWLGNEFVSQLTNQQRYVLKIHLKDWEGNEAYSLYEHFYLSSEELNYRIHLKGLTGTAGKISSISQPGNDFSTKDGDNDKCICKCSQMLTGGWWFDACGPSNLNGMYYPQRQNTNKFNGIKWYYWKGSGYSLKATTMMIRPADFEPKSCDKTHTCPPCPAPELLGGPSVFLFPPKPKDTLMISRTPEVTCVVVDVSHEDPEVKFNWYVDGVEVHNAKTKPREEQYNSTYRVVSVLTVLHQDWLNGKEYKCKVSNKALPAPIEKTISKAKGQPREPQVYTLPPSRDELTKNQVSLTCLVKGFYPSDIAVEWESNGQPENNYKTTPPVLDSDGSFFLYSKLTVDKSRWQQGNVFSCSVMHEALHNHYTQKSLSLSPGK
# procedure.details: SPR, hIgG1 antibody captured, room temp
test.readout: pKd
Here pKd is given on a logarithmic scale as minus log10 of the concentration in mol/L.

Example entries and their recorded answers appear below.
>>> value_reported("H1H732N (antibody, V domains shown) VH: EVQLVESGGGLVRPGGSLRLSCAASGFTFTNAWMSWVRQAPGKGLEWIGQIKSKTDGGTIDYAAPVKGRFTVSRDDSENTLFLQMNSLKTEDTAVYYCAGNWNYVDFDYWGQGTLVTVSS VL: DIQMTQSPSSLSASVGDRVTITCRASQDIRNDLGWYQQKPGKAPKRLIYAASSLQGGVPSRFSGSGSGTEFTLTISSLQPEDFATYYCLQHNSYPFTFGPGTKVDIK")
9.41
>>> value_reported("H1H696P (antibody, V domains shown) VH: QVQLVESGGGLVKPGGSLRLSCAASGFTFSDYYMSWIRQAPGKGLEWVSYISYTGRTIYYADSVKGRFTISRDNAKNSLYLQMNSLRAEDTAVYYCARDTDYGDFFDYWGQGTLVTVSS VL: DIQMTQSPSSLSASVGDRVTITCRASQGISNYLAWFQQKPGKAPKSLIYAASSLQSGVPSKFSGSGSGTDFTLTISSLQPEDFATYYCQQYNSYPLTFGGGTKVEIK")
9.54

Switching to the query record.
Ask: Recorded pKd of H1H749N (antibody, V domains shown) VH: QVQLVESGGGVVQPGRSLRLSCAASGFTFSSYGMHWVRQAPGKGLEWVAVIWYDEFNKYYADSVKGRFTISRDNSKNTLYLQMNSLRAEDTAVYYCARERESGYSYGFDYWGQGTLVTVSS VL: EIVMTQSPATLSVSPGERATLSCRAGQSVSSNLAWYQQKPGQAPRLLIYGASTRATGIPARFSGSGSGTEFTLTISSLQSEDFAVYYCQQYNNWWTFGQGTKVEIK , please.
Result: 9.93
